# Test system: PPARg DBDmut:RXRa IVT, anti-PPARg (DBD mutation: PPARg1 K132A/R137A, NR concentration 270 nM, RXRa partner concentration 90 nM)
# Assay Details: PBM binding z-score (relative to random genomic background probes); higher = stronger binding; sequences stand for … in GC…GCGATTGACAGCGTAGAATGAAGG
Quantity Kind: PBM binding z-score
# answer = number (no unit)

CTCGAAAGGTCGGTTGAGATGAGTATACGGATAA ... 0.456
GCGACTGGGGCATCACCAGGTTACCATAACTTAA ... -0.477
GCTAACGGGTCAAAGGTTATAGCATGAATAGAAT ... 0.399

Value of PBM binding z-score reported for the sequence `CCTCTTAGTTGACCATAAGGGCAACCGAAGCTCG` is 0.452

PBM binding z-score for `ATATGGAGGTTACATCCGGGTCATTCAGGCTATG` is 1.46

The measured PBM binding z-score associated with `TGCATGAGGTTAAAGATCAGGGAACGTGGCGTCG` reads 0.0491

Memo: `TCAGACAGGCGAAGGTAACTCAGGTACGCAGTCG` , reported PBM binding z-score: -0.529

The sequence `GTACCAAGGTGAATAGGTCGTAGATGAGTAGGCG` showed PBM binding z-score equal to -0.433

Noted for `GCGACTGGGGCATCAGCAGGTAACCATAACTTAA` : its PBM binding z-score reads -0.465

Reported PBM binding z-score ( `TTTATTAGTTGATTAGGGCAACCGAAACAGCGGA` ) = 1.84

Record summary for `ACCGAAAGGTCGACGAGGTGAGTATACACCGTTT` : reported PBM binding z-score = 0.47

// recorded PBM binding z-score for `AATACATGGTCATCGTAGGCCAGAGTACGCACAG` : 0.624

---

# Test system: PPARg DBDmut IVT, anti-PPARg (DBD mutation: PPARg1 K132A/R137A, NR concentration 270 nM)
# Assay Details: PBM binding z-score (relative to random genomic background probes); higher = stronger binding; sequences stand for … in GC…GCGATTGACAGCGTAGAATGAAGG
// class assignment uses PBM binding z-score with these ranges: group 1 = under -0.2, group 2 = from -0.2 up to 0.5, group 3 = 0.5 and over

Field: example entries. Status: answers known.
TCTTGTAGATCAATAGAGGTTAAGAGAGTGCGCT ... group 2
AGAACGAGAGCAATGAGTTGATAGCACGGGTGGC ... group 1
ACTTACGGGTCAACGAGGTTATAGCACGCGTATA ... group 3

Returns: class label. Input: `AGAACGAGGGCAATGAGTTGCTAGCACGGGTGGC` group 2

Exercise: read the entry `TCGAGTAGGTTAGGGGCAATCAGAATGGCGTCGA` and state which class it falls under. group 2

Band for the recorded PBM binding z-score of `GCGACTGGGGCATCAGAAGGTTACCATAACTTAA` ? group 2

Into which category would you place `ACTCGGCGGACAAAGGTCAGAGCTACGCCAGTGA` ? group 1

Classify this sequence: `AGAATGAGGTTAAGATCAGCGAAACAGAATACAT` group 3

Band for the recorded PBM binding z-score of `ATCTCTAGGTAAAGATCAGTGAAAGATCGATAGA` ? group 3

Exercise: read the entry `CTTGAAAGGTCGGTTGAGGTGAGTATACGGATAA` and state which class it falls under. group 2

Could you tell me which band `CCGACTAGGGCAAGGTTACCATAACGCACAGCCA` belongs to? group 1

---

# Test system: RXRa homodimer (NR concentration 180 nM)
# Assay Details: PBM binding z-score (relative to random genomic background probes); higher = stronger binding; sequences stand for … in GC…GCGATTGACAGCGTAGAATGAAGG
Quantity Kind: PBM binding z-score
Output spec: single numeric token, no unit.

CCTATTAGTTGACCATAAAGGCAACCGAAGCTCG ... 0.337
TCATATAGGTAAAAGGTGAAACTCGGTGTGGTAA ... 3.81

Summary for this sequence, `TCATATAGGTTAATGCTAGGTGAAAGTCCGATCT` : PBM binding z-score is 1.48

PBM binding z-score reported for this sequence `GCTAGTTGGTCAGTAAAAGGTCAAACACCGGTCG` : 5.59

Briefly, PBM binding z-score measured for `ATCTCTAGGCAAGACTCAGTTCAGTGAAGAACGC` : -0.365

# sequence `GCTCTGAGGACAAGGTCAGAGCTTTGTCCGTAGA` ; its PBM binding z-score = 2.38

Recorded result, `ATATGTAGGGTAAGGGTCATTCAGGTTGGTTCGC` , PBM binding z-score: 5.38

The measured PBM binding z-score associated with `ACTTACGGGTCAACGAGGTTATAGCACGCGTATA` reads 6.39

# PBM binding z-score of `TCTGCCAGGTCAACGATGGTCAGCTAATCTGCTA` = 3.42

Given item `TCATATAGGTAACTGCTAGGTGAAAGTCCGATCT` , the value recorded as its PBM binding z-score is 0.853

# PBM binding z-score (sequence: `CCTAGCAGGCCAGGGCCACTCAAGCATTTCGCTT` ) is -0.718

Measured PBM binding z-score, `GCTTGTAGATCAAGGTTAAGAACGACTAAGCTAA` : 0.789

---

# Tested on: LXRb homodimer (NR concentration 270 nM)
# Assay Details: PBM binding z-score (relative to random genomic background probes); higher = stronger binding; sequences stand for … in GC…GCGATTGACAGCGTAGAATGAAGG
Assign met to entries whose PBM binding z-score meets or exceeds -0.04; assign not met to the rest.

Completed entries (count: 5):
CAAACTAGGTCAAGAGGTCCAAGTCCGCTTCCCG ... met
TCTAGTTGTTCAAAGGTCACACACTCGAAATGCG ... met
GTTATTAGTTGAAAGGGCAACCGAATGATTCTCG ... met
TCTAGTTGGTCAAAGGTCACACTCTCGAAATGCG ... met
CCTTACGGGTCACTCCAGGTTAAAGCATCGGAGT ... met

Please indicate if the recorded PBM binding z-score for `GGAACGAGGGCAAAGTTGACAGCATCTGTCGACG` meets or exceeds -0.04. not met

Would you say `ATATGTAGGTTAGATGGGGTCATTCAGACTAGGC` shows PBM binding z-score at minimum -0.04? met

Is reported PBM binding z-score greater than or equal to -0.04 here: `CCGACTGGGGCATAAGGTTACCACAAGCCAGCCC` not met

Would you say `TCTATTAGTTGAAGGGTAACCGACGAGTCCGTTT` shows PBM binding z-score at minimum -0.04? met

Does `CGCCAAAGTTCAACTAAGGTAACGTAAAGCACGC` have a reported PBM binding z-score of at least -0.04? met

Check if PBM binding z-score >= -0.04 (inclusive). Item: `TATCGGAGGACACGAAAGGTCAGAGCTCGACATC` met

Quick check, PBM binding z-score >= -0.04? `TCTATGAGTTGATTAGGGCAACCGAAACAGCGGA` not met

Quick check: does `TGTTGTAGATCAAAGGTTAAGAAAGCCGAAGCCT` have PBM binding z-score greater than or equal to -0.04? met

---

# System: VDR:RXRa (NR concentration 270 nM, RXRa partner concentration 90 nM)
# Assay Details: PBM binding z-score (relative to random genomic background probes); higher = stronger binding; sequences stand for … in GC…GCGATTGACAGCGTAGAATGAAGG
Binary classification by PBM binding z-score, with 0.6 as an inclusive lower bound for TRUE; all other cases are FALSE.

TGAATGAGGTTAAGGATCAGGGAACGTGGCGTCG ... TRUE
TAGACAGGGTCAAAGGCCAGAGTACGAATGTCGA ... TRUE
CCGACTGGGGCAAAGGCTACCATACTCAGTACGA ... FALSE
ATCGAAAGGTCGAGATGAGTATAGAGAAAGGGAA ... TRUE
GCGACTGGGGCATCAGCAGGTTACAATAACTTAA ... FALSE

In plain terms: is recorded PBM binding z-score at least 0.6 for `TGAATGAGGTAATAAGATCAGGGAACGTTGCAAA` ? FALSE

Decide: is the reported value of PBM binding z-score for `TGATATAGGTAAAAGGTGAAAGTCGGTGTGGTAA` equal to or greater than 0.6? TRUE

---

# Tested on: LXRa homodimer (NR concentration 270 nM)
# Assay Details: PBM binding z-score (relative to random genomic background probes); higher = stronger binding; sequences stand for … in GC…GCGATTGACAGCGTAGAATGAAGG
# cutoff -0.2 applies to PBM binding z-score; >= gives 1, < gives -1

CCGACTGGGGCAAGGTTACCATTACGCACAGCCA ... -1
GATACAGGGTCAGCTAGAGGCCAGATTATGGAAA ... 1
CATACAGGGTGAGCTAGGCCAGAGTAGGGACGGC ... -1
AATACAGGGTCATCGTAGGCCAGAATACGCACAG ... 1

Check the entry `TAGCCTAGGTGATTCAGGGGCCAGTATAGAAAGC` : does PBM binding z-score equal or exceed -0.2? -1

Is reported PBM binding z-score greater than or equal to -0.2 here: `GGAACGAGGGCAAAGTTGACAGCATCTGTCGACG` -1

Hello, I need to know if `CAAACTAGGTCTCAGAGGTCAAAGTCCGTGCGTA` has measured PBM binding z-score not below -0.2. Thanks! 1

Assess whether reported PBM binding z-score for `TTACCAAGGTGAGCTGAGGTCGTTGAGCCAACTC` sits at -0.2 or higher. -1

Could you tell me if the measured PBM binding z-score of `GCAGACAGGTGAAACGCAGTTAACTCAGGGTGGC` reaches -0.2 or more? -1

Check this sequence for PBM binding z-score at or above -0.2: `ATCTCTAGGTAAAAGTTAAGTGAATCCCGAGGAT` 1

Reported PBM binding z-score at or above -0.2? `CCTGCTAGGTCAATGGTCAGCTTAAGCAGCTCGC` 1

Reported PBM binding z-score reaches at least -0.2 for `ATCGAAAGGTCGATGAGGTGAGTATACACCGTTT` ? 1
